Recorded measurements of MIC, one per entry
# Test system: S. aureus VISA/HIP5827
# assay summary: MIC, broth microdilution, vancomycin-intermediate S. aureus VISA HIP5827
# Assay type: cell-based, Staphylococcus aureus
# measurement conditions: Staphylococcus aureus VISA/HIP5827; read-out: MIC
property measured: MIC (µM)

INSERT INTO measurements (compound, property_measured, qual, obs_value) VALUES
  ('CCCCC#Cc1ccc(/C=C/C(=O)NCCNC(=O)[C@H]2NC(=O)[C@H]3NC(=O)[C@H](NC(=O)[C@@H]4NC(=O)[C@H](CC(N)=O)NC(=O)[C@H](NC(=O)[C@@H](CC(C)C)NC)[C@H](O)c5ccc(c(Cl)c5)Oc5cc4cc(c5O[C@@H]4O[C@H](CO)[C@@H](O)[C@H](O)[C@H]4O[C@H]4C[C@](C)(N)[C@H](O)[C@H](C)O4)Oc4ccc(cc4Cl)[C@H]3O)c3ccc(O)c(c3)-c3c(O)cc(O)cc32)cc1 [Vanc-48]', 'MIC', '=', 1.56),
  ('CCCCCCCCCC(=O)N[C@@H](Cc1c[nH]c2ccccc12)C(=O)N[C@H](CC(N)=O)C(=O)N[C@@H](CC(=O)O)C(=O)N[C@@H]1C(=O)NCC(=O)N[C@@H](CCCN)C(=O)N[C@@H](CC(=O)O)C(=O)N[C@H](C)C(=O)N[C@@H](CC(=O)O)C(=O)NCC(=O)N[C@H](CO)C(=O)N[C@@H]([C@H](C)CC(=O)O)C(=O)N[C@@H](CC(=O)c2ccccc2N)C(=O)O[C@@H]1C [Daptomycin, reference compound]', 'MIC', '>', 12.5),
  ('CN[C@H](CC(C)C)C(=O)N[C@H]1C(=O)N[C@@H](CC(N)=O)C(=O)N[C@H]2C(=O)N[C@H]3C(=O)N[C@H](C(=O)N[C@H](C(=O)NCCCNC(=O)c4ccc5ccccc5c4)c4cc(O)cc(O)c4-c4cc3ccc4O)[C@H](O)c3ccc(c(Cl)c3)Oc3cc2cc(c3O[C@@H]2O[C@H](CO)[C@@H](O)[C@H](O)[C@H]2O[C@H]2C[C@](C)(N)[C@H](O)[C@H](C)O2)Oc2ccc(cc2Cl)[C@H]1O [Vanc-28]', 'MIC', '=', 0.39),
  ('CNC(CC(C)C)C(=O)NC1C(=O)NC(CC(N)=O)C(=O)NC2C(=O)NC3C(=O)NC(C(=O)NC(C(=O)NCC(=O)Nc4ccc(-c5ccc(OC)cc5)cc4)c4cc(O)cc(O)c4-c4cc3ccc4O)C(O)c3ccc(c(Cl)c3)Oc3cc2cc(c3OC2OC(CO)C(O)C(O)C2OC2CC(C)(N)C(O)C(C)O2)Oc2ccc(cc2Cl)C1O (centres unmarked) [Vanc-57]', 'MIC', '=', 0.39),
  ('CNC(CC(C)C)C(=O)NC1C(=O)NC(CC(N)=O)C(=O)NC2C(=O)NC3C(=O)NC(C(=O)NC(C(=O)NCC(=O)Nc4ccc(-c5cn(-c6ccc(OC)cc6)nn5)cc4)c4cc(O)cc(O)c4-c4cc3ccc4O)C(O)c3ccc(c(Cl)c3)Oc3cc2cc(c3OC2OC(CO)C(O)C(O)C2OC2CC(C)(N)C(O)C(C)O2)Oc2ccc(cc2Cl)C1O (centres unmarked) [Vanc-72]', 'MIC', '=', 0.78),
  ('C#CCCC(=O)NCCCNC(=O)C1NC(=O)C2NC(=O)C(NC(=O)C3NC(=O)C(CC(N)=O)NC(=O)C(NC(=O)C(CC(C)C)NC)C(O)c4ccc(c(Cl)c4)Oc4cc3cc(c4OC3OC(CO)C(O)C(O)C3OC3CC(C)(N)C(O)C(C)O3)Oc3ccc(cc3Cl)C2O)c2ccc(O)c(c2)-c2c(O)cc(O)cc21 (centres unmarked) [Vanc-B]', 'MIC', '=', 3.13),
  ('CNC(CC(C)C)C(=O)NC1C(=O)NC(CC(N)=O)C(=O)NC2C(=O)NC3C(=O)NC(C(=O)NC(C(=O)NCCCNC(=O)c4ccc5cc(OC)ccc5c4)c4cc(O)cc(O)c4-c4cc3ccc4O)C(O)c3ccc(c(Cl)c3)Oc3cc2cc(c3OC2OC(CO)C(O)C(O)C2OC2CC(C)(N)C(O)C(C)O2)Oc2ccc(cc2Cl)C1O (centres unmarked) [Vanc-29]', 'MIC', '=', 0.39),
  ('CNC(CC(C)C)C(=O)NC1C(=O)NC(CC(N)=O)C(=O)NC2C(=O)NC3C(=O)NC(C(=O)NC(C(=O)NCC(=O)Nc4ccc(-c5cnnn5C5OC(COC(C)=O)C(OC(C)=O)C(OC(C)=O)C5OC(C)=O)cc4)c4cc(O)cc(O)c4-c4cc3ccc4O)C(O)c3ccc(c(Cl)c3)Oc3cc2cc(c3OC2OC(CO)C(O)C(O)C2OC2CC(C)(N)C(O)C(C)O2)Oc2ccc(cc2Cl)C1O (centres unmarked) [Vanc-78]', 'MIC', '=', 3.13),
  ('CNC(CC(C)C)C(=O)NC1C(=O)NC(CC(N)=O)C(=O)NC2C(=O)NC3C(=O)NC(C(=O)NC(C(=O)NCCCNC(=O)c4ccc(-c5ccc(-c6ccccc6)cc5)cc4)c4cc(O)cc(O)c4-c4cc3ccc4O)C(O)c3ccc(c(Cl)c3)Oc3cc2cc(c3OC2OC(CO)C(O)C(O)C2OC2CC(C)(N)C(O)C(C)O2)Oc2ccc(cc2Cl)C1O (centres unmarked) [Vanc-35]', 'MIC', '=', 0.05),
  ('C#Cc1ccc(-c2ccc(C(=O)NCCCNC(=O)[C@H]3NC(=O)[C@H]4NC(=O)[C@H](NC(=O)[C@@H]5NC(=O)[C@H](CC(N)=O)NC(=O)[C@H](NC(=O)[C@@H](CC(C)C)NC)[C@H](O)c6ccc(c(Cl)c6)Oc6cc5cc(c6O[C@@H]5O[C@H](CO)[C@@H](O)[C@H](O)[C@H]5O[C@H]5C[C@](C)(N)[C@H](O)[C@H](C)O5)Oc5ccc(cc5Cl)[C@H]4O)c4ccc(O)c(c4)-c4c(O)cc(O)cc43)cc2)cc1 [Vanc-S]', 'MIC', '=', 0.39),
  ('CNC(CC(C)C)C(=O)NC1C(=O)NC(CC(N)=O)C(=O)NC2C(=O)NC3C(=O)NC(C(=O)NC(C(=O)NCCCNC(=O)c4ccc5cc(O)ccc5c4)c4cc(O)cc(O)c4-c4cc3ccc4O)C(O)c3ccc(c(Cl)c3)Oc3cc2cc(c3OC2OC(CO)C(O)C(O)C2OC2CC(C)(N)C(O)C(C)O2)Oc2ccc(cc2Cl)C1O (centres unmarked) [Vanc-30]', 'MIC', '=', 0.39);
